System: TMD8
Experiment: Cytotoxicity against human TMD8 cells measured after 8 days
Format: functional, cell-based
Details: TMD8, 192 h
recorded-metric: pIC50
// pIC50: -log10(molar conc.)

INSERT INTO results (smiles_record, target_or_test_system, measured_result) VALUES
  ('C/C=C/Cn1cc(-c2ccc(C(C)(C)O)cc2OC)c2cc[nH]c2c1=O', 'TMD8', 4.70);

Lab note: next molecule to report on.
For C/C=C/Cn1cc(-c2ccc(C(=O)N3CCOCC3)cc2)c2cc[nH]c2c1=O the molecule record lists pIC50 as 4.70

---

Tested on: OE33
Assay: Cytotoxicity against human OE33 cells measured after 8 days
Assay type: functional, cell-based
Conditions: OE33, 192 h
recorded-metric: pIC50
// pIC50: -log10(molar conc.)

INSERT INTO assay_data (smiles_record, recorded_metric, measured_result) VALUES
  ('C/C=C/Cn1cc(-c2ccc(C(=O)N3CCOCC3)cc2)c2cc[nH]c2c1=O', 'pIC50', 4.70);

Now, please, on to the next molecule.
Sample C/C=C/Cn1cc(-c2ccc(C(C)(C)O)cc2OC)c2cc[nH]c2c1=O ; pIC50 observed: 4.70
